Just for reference, PubChem BioAssay (NCI) is where these values come from.

test system: SK-MEL-5 melanoma; experiment: NCI tumour cell line growth inhibition, 48 h
Below, each of the molecules is paired with its reported TGI value.
Reply numerically in µM, unit not repeated.

Example entries begin here.
CCN1CCN(C(=O)[C@@]2(C)CC[C@]3(C)CC[C@]4(C)C(=CC(=O)[C@@H]5[C@@]6(C)CC[C@H](OC7C[C@@H](O)[C@@H](O)C(C)O7)C(C)(C)[C@@H]6CC[C@]54C)[C@@H]3C2)CC1 (stereo partly specified): 4.6
CN(C)c1ccc(/C=c2/c3ccccc3n3c2c2c([n+]3C)CCCC2)cc1: 0.217
NC(N)=N/N=C/c1c(-c2ccsc2)nc2sccn12: 28.8

Below: the item to evaluate.
Task item: Given CC(C)CCC1CC2C(=O)N(c3ccccc3)C(=O)C2c2[nH]c3ccccc3c21 (stereo unspecified) , state its recorded TGI.
Reply: 13

* * *

Below, each of the molecules is paired with its reported log10 of TGI value.
system: COLO 205 colon; assay: NCI tumour cell line growth inhibition, 48 h
All values: base-10 log of TGI in µM.

CO/N=C(\C)c1ccc(Nc2nc3ccccc3c3occc23)cc1: 1.45

Task item: Given CC1(C)N=C(N)N=C(N)N1c1ccc(CCCCc2ccc(Cl)cc2S(=O)(=O)F)c(Cl)c1 , state its recorded log10 of TGI.
Reply: 0.40

Task item: # repeat for CN(C)c1ccc(/C=c2/c3ccccc3n3c2c2c([n+]3C)CCCC2)cc1
Reply: -0.77

Task item: # repeat for CCOc1ncn(-c2ccc(NC(=S)Nc3ncccn3)cc2)n1
Reply: 1.91

Task item: # repeat for CCN(CC)CCC(CNc1ccnc2cc(Cl)ccc12)c1ccc(Cl)cc1 (stereo not given)
Reply: 0.40

Task item: # repeat for COc1cccc(C2CC(C)(O)Oc3cc4c(cc32)OCO4)c1O (stereo not given)
Reply: 1.62

Task item: # repeat for COc1ccccc1/C=N\N/C(N)=N\N=C\c1ccccc1OC
Reply: -0.20

Task item: # repeat for COC(=O)C1c2cc3c(cc2C(OC2OC(C)C(OC)C(C)(OC)C2OC)CC1(C)O)C(=O)c1c(O)cc2c(c1C3=O)OC1OC2(C)C(O)C([N+](C)(C)[O-])C1O (stereo not given)
Reply: -0.53

* * *

tested on: HOP-62 NSCLC; assay: NCI tumour cell line growth inhibition, 48 h
MEASUREMENT_KIND: TGI

Example entries begin here.
O=c1oc2ccc3ccccc3c2cc1-c1nc2ccccc2s1: > 100 µM
CCCC(=O)OCC1OC(n2ccc(N)nc2=O)C(OC(=O)CCC)C1OC(=O)CCC (stereo unspecified): 8.55 µM
O=C(Nc1ccn(CCO)c(=O)n1)c1ccccc1: > 100 µM
Cc1c2n(c(=O)[nH]c1=O)C1OC(CO)C(O2)C1O (stereo unspecified): > 100 µM
COC(=O)C1=C(OC(=O)/C(=C/c2ccc(Cl)cc2)c2ccc(Cl)cc2)C(C(=O)OC)[C@@]2(O)[C@@H](C(=O)OC)[C@H](C)C[C@@H]1[C@@H]2C(=O)OC (stereo partly specified): > 100 µM
N#Cc1c(NC(=O)NCc2ccccc2)sc2c1CCCCC2: > 64.2 µM
CC1(C)S[C@@H]2[C@H](NC(=O)C3(N)CCCCC3)C(=O)N2[C@H]1C(=O)O: > 100 µM
CCN1CCN(C(=O)[C@@]2(C)CC[C@]3(C)CC[C@]4(C)C(=CC(=O)[C@@H]5[C@@]6(C)CC[C@H](OC7C[C@@H](O)[C@@H](O)C(C)O7)C(C)(C)[C@@H]6CC[C@]54C)[C@@H]3C2)CC1 (stereo partly specified): 10.8 µM

Task item: Given COC(=O)C1c2cc3c(cc2C(OC2OC(C)C(OC)C(C)(OC)C2OC)CC1(C)O)C(=O)c1c(O)cc2c(c1C3=O)OC1OC2(C)C(O)C([N+](C)(C)[O-])C1O (stereo unspecified) , state its recorded TGI.
Reply: > 100 µM

Task item: # repeat for c1ccc2cc(-c3cc4ccccc4s3)ccc2c1
Reply: > 100 µM

Task item: # repeat for Cc1c(O)ccc2c(O)c(NC(=O)c3ccc4c(c3)CCC(C)(C)O4)c(=O)oc12
Reply: > 100 µM
